molecular target: human β3 receptors (Homo sapiens); construct: Full length β3 AR clones (402 amino acids) containing the last 6 amino acids of hβ3—AR; expressed in transfected cells; host or cells: CHO cells; experiment: cAMP response (SPA) in CHO cells expressing cloned human β3 adrenergic receptor; format: cell-based; settings: maximal response compared to the maximal response of isoproterenol at 10^−5 M
I'd appreciate it if you could supply IA(β3) values for the items below.
One number for each entry.

Example entries begin here.
COc1ccc(S(=O)(=O)N2CCC(CNC[C@H](O)COc3cccc4[nH]c(C)cc34)CC2)cc1: 0.23
CS(=O)(=O)Nc1cc([C@@H](O)CNCC2CCN(S(=O)(=O)c3ccc(NC(=O)NCCc4cc(F)ccc4F)cc3)CC2)ccc1O: 1.1
COc1ccc(S(=O)(=O)N2CCC(CNC[C@H](O)COc3cccc4c3-c3ccccc3C4=O)CC2)cc1: 0.36
CN1CCN(c2ccc(S(=O)(=O)N3CCC(CNC[C@H](O)COc4ccc(O)cc4)CC3)cc2)C1=O: 0.76

Could I get IA(β3) for every one of these entries?
1. COc1ccc(S(=O)(=O)N2CCC(CNC[C@H](O)COc3ccc(O)cc3)CC2)cc1
2. CCOC(=O)c1cccc(NC(=O)N2CCC(CNC[C@H](O)COc3ccc(O)cc3)CC2)c1
3. Cc1c(C)c(C)c(S(=O)(=O)N2CCC(CNC[C@H](O)c3ccc(O)c(NS(C)(=O)=O)c3)CC2)c(C)c1C
4. CCCCCCC(=O)Nc1ccc(S(=O)(=O)N2CCC(CNC[C@H](O)COc3ccc(O)cc3)CC2)cc1
5. COC(=O)COc1ccc(CNC(=O)Nc2ccc(S(=O)(=O)N3CCC(CNC[C@H](O)c4ccc(O)c(NS(C)(=O)=O)c4)CC3)cc2)c(F)c1
6. O=C(Nc1ccc(S(=O)(=O)N2CCC(CNC[C@H](O)COc3ccc(O)cc3)CC2)cc1)c1n[nH]c2ccccc12
7. O=c1[nH]c2cccc(OC[C@@H](O)CNCC3CCN(CCC(F)(F)F)CC3)c2[nH]1
8. CS(=O)(=O)Nc1cc([C@@H](O)CNCC2CCN(S(=O)(=O)c3ccc(-n4cc(C(=O)O)cn4)cc3)CC2)ccc1O

1: 1.04; 2: 0.9; 3: 1.34; 4: 0.91; 5: 1; 6: 0.82; 7: 0.53; 8: 0.93

Could I get IA(β3) for every one of these entries?
1. COC(=O)c1cccc2c1ccn2-c1ccc(S(=O)(=O)N2CCC(CNC[C@H](O)c3ccc(O)c(NS(C)(=O)=O)c3)CC2)cc1
2. O=C(NC1CCCCC1)N1CCC(CNC[C@H](O)COc2ccc(O)cc2)CC1

1: 1; 2: 0.46

* * *

I'd appreciate it if you could supply IA(β3) values for the items below.
molecular target: human β3 receptors (Homo sapiens); construct: Full length β3 AR clones (402 amino acids) containing the last 6 amino acids of hβ3—AR; expressed in transfected cells; host or cells: CHO cells; assay: cAMP response (SPA) in CHO cells expressing cloned human β3 adrenergic receptor; type: cell-based; details: maximal response compared to the maximal response of isoproterenol at 10^−5 M

CCOC(=O)c1cc2ccccc2n1-c1ccc(S(=O)(=O)N2CCC(CNC[C@H](O)c3ccc(O)c(NS(C)(=O)=O)c3)CC2)cc1: 0.82
Cc1cc2cccc(OC[C@@H](O)CNCC3CCN(S(=O)(=O)c4ccc(NC(=O)Nc5ccccc5)cc4)CC3)c2[nH]1: 0.4

Could I get IA(β3) for every one of these entries?
1. CS(=O)(=O)Nc1cc([C@@H](O)CNCC2CCN(S(=O)(=O)c3ccc(NC(=O)N4CCC[C@H]4C(=O)O)cc3)CC2)ccc1O
2. CC(C)C[C@H](NC(=O)c1ccc(N2CCC(CNC[C@H](O)c3ccc(O)c(NS(C)(=O)=O)c3)CC2)cc1)C(=O)O

[0.93, 1]

* * *

I'd appreciate it if you could supply melting point values for the items below.
Structures can show the parent of a compound that is named as a salt.
Give bare numbers, in °C.

Example entries begin here.
O/N=C1\c2ccccc2-c2c(OC[C@@H](O)CNCC3CCN(c4ccnc5cc(C(F)(F)F)ccc45)CC3)cccc21 (as salt: hydrochloride): 171
O=C(Nc1ccc(S(=O)(=O)N2CCC(CNC[C@H](O)COc3ccc(O)cc3)CC2)cc1)Nc1ccccn1: 189
OCCCCCCCCCCCCN1CCC(CNC[C@H](O)COc2cccc3[nH]c4ccccc4c23)CC1: 110

# input for lookup
Find the recorded melting point belonging to O[C@@H](CNCC1CCN(CCC(F)(F)F)CC1)COc1ccc(Br)c2[nH]c3ccccc3c12 and report it. 79

* * *

molecular target: human β3 receptors (Homo sapiens, UniProt P13945); construct: Full length β3 AR clones (402 amino acids) containing the last 6 amino acids of hβ3—AR; experiment: cAMP response (SPA) in CHO cells expressing cloned human β3 adrenergic receptor; conditions: CHO cells expressing human β3 receptor; cAMP; 30 min incubation; 10^−9 M to 10^−5 M
Sequence (P13945 whole entry): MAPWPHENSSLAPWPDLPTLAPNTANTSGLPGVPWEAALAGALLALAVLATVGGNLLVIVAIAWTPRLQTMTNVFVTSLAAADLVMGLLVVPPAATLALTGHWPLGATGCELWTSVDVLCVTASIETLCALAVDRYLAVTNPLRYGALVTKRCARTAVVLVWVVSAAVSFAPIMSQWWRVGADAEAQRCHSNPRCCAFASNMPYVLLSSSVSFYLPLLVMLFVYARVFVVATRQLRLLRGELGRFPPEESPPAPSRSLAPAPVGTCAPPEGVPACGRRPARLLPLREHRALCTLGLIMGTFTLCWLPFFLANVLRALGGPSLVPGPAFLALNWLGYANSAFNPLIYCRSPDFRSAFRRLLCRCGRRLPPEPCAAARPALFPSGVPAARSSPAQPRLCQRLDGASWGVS
QUANTITY_NAME: log10(EC50) (log10 of the value in nM)
Field: value | Transform: log10 | Quantity: EC50 | Unit: nM

COc1ccc(S(=O)(=O)N2CCC(CNC[C@H](O)COc3ccc(O)cc3)CC2)cc1OC: 2.94
CS(=O)(=O)Nc1cc([C@@H](O)CNCC2CCN(S(=O)(=O)c3ccc(NC(=O)NCCc4cc(F)ccc4F)cc3)CC2)ccc1O: 0.70
CCOC(=O)c1cccc(NC(=O)N2CCC(CNC[C@H](O)COc3ccc(O)cc3)CC2)c1: 2.48

Could I get log10(EC50) for every one of these entries?
1. CS(=O)(=O)Nc1cc([C@@H](O)CNCC2CCN(S(=O)(=O)c3ccc(NC(=O)NCc4ccc(OCC(=O)O)cc4F)cc3)CC2)ccc1O
2. CCOC(=O)Cc1cn(-c2ccc(S(=O)(=O)N3CCC(CNC[C@H](O)c4ccc(O)c(NS(C)(=O)=O)c4)CC3)cc2)c2ccccc12

1.54
1.11

* * *

Molecular target: human β3 receptors (Homo sapiens)
Construct: Full length β3 AR clones (402 amino acids) containing the last 6 amino acids of hβ3—AR; expressed in transfected cells; host or cells: CHO cells
Test: cAMP response (SPA) in CHO cells expressing cloned human β3 adrenergic receptor
Format: cell-based
Conditions: maximal response compared to the maximal response of isoproterenol at 10^−5 M
Method: Binding to the receptors was measured in Chinese Hamster ovary (CHO) cells that were transfected with adrenergic receptors. […] CHO cells were grown in 24-well tissue culture plates in Dulbecco's Modified Eagle Media with 10% fetal bovine serum, MEM non-essential amino acids, Penicillin-Streptompycin and Geneticin. […] The plates, containing the cells and neutralized media, were stored at −20 degrees celsius until ready to test for cAMP using the SPA test kit (Amersham). […]
QUANTITY_NAME: IA(β3)
One number for each entry.

Example entries begin here.
Oc1ccc2[nH]c3ccccc3c2c1OC[C@@H](O)CNCC1CCN(CCC(F)(F)F)CC1: 0.52
O=C(Nc1ccc(S(=O)(=O)N2CCC(CNC[C@H](O)COc3ccc(O)cc3)CC2)cc1)Nc1c(F)cccc1F: 1.2
Cc1cc2c(OC[C@@H](O)CNCC3CCN(CCC(F)(F)F)CC3)cccc2[nH]1: 0.66
CS(=O)(=O)Nc1cc([C@@H](O)CNCC2CCN(S(=O)(=O)c3ccc(CNC(=O)c4ccccc4)s3)CC2)ccc1O: 0.72
CS(=O)(=O)Nc1cc([C@@H](O)CNCC2CCN(c3ccc(C(=O)N4CCCC4C(=O)O)cc3)CC2)ccc1O (stereo in doubt): 1
O=C(NC1CCCCC1)N1CCC(CNC[C@H](O)COc2cccc3[nH]c4ccccc4c23)CC1: 0.53
COC(=O)[C@@H]1CCCN1C(=O)Nc1ccc(S(=O)(=O)N2CCC(CNC[C@H](O)c3ccc(O)c(NS(C)(=O)=O)c3)CC2)cc1: 0.9
CN(Cc1cc(F)ccc1F)C(=O)Nc1ccc(S(=O)(=O)N2CCC(CNC[C@H](O)c3ccc(O)c(NS(C)(=O)=O)c3)CC2)cc1: 1
O[C@@H](CNCC1CCN(CCCC(F)(F)F)CC1)COc1cccc2[nH]c3ccccc3c12: 0.98
O=C1c2ccccc2-c2c(OC[C@@H](O)CNCC3CCN(CCC(F)(F)F)CC3)cccc21: 0.62

Could I get IA(β3) for every one of these entries?
1. Cn1cnc(S(=O)(=O)N2CCC(CNC[C@H](O)COc3ccc(O)cc3)CC2)c1
2. CCCCCCCCN1CCC(CNC[C@H](O)COc2cccc3[nH]c4ccccc4c23)CC1
3. COC(=O)CCc1nc(-c2ccc(S(=O)(=O)N3CCC(CNC[C@H](O)c4ccc(O)c(NS(C)(=O)=O)c4)CC3)cc2)no1
4. CC(C)N(Cc1c(F)cccc1F)C(=O)Nc1ccc(S(=O)(=O)N2CCC(CNC[C@H](O)c3ccc(O)c(NS(C)(=O)=O)c3)CC2)cc1
5. CCc1cc(Br)ccc1S(=O)(=O)N1CCC(CNC[C@H](O)c2ccc(O)c(NS(C)(=O)=O)c2)CC1

1. 0.4
2. 0.51
3. 1
4. 0.93
5. 0.72
